Test system: MK cells (MK-lin)
Test: MLTA, MK: concentration-response and QSP model fit
Assay type: cell-based, human
Settings: Homo sapiens, 144 h; dose 2500 nM, 6 days, normalized to vehicle control; read-out: MK normalized cell count
Label yes when activity at 2.5 µM is strictly below 1%; at or above that, label no.

>  <Compound>
CCN1CCN(Cc2ccc(Nc3ncc(F)c(-c4cc(F)c5nc(C)n(C(C)C)c5c4)n3)nc2)CC1

>  <Target Desc>
MK cells (MK-lin)

>  <Class Assignment>
yes

$$$$
>  <Compound>
CC(=O)O[C@@]12CO[C@@H]1C[C@H](O)[C@@]1(C)C(=O)[C@H](O)C3=C(C)[C@@H](OC(=O)[C@H](O)[C@@H](NC(=O)OC(C)(C)C)c4ccccc4)C[C@@](O)([C@@H](OC(=O)c4ccccc4)[C@H]21)C3(C)C

>  <Target Desc>
MK cells (MK-lin)

>  <Class Assignment>
no

$$$$
>  <Compound>
CN(C)C(=O)c1cc2cnc(Nc3ccc(N4CCNCC4)cn3)nc2n1C1CCCC1

>  <Target Desc>
MK cells (MK-lin)

>  <Class Assignment>
no

$$$$
>  <Compound>
CCc1cnn2c(NCc3ccc[n+]([O-])c3)cc(N3CCCC[C@H]3CCO)nc12

>  <Target Desc>
MK cells (MK-lin)

>  <Class Assignment>
yes

$$$$
>  <Compound>
CS(=O)(=O)N1CCN(Cc2cc3nc(-c4cccc5[nH]ncc45)nc(N4CCOCC4)c3s2)CC1

>  <Target Desc>
MK cells (MK-lin)

>  <Class Assignment>
no

$$$$
>  <Compound>
CC(=O)O[C@H]1C(=O)[C@@]2(C)[C@H]([C@H](OC(=O)c3ccccc3)[C@]3(O)C[C@H](OC(=O)[C@H](O)[C@@H](NC(=O)c4ccccc4)c4ccccc4)C(C)=C1C3(C)C)[C@]1(OC(C)=O)CO[C@@H]1C[C@@H]2O

>  <Target Desc>
MK cells (MK-lin)

>  <Class Assignment>
yes

$$$$
>  <Compound>
CC(=O)c1c(C)c2cnc(Nc3ccc(N4CCNCC4)cn3)nc2n(C2CCCC2)c1=O

>  <Target Desc>
MK cells (MK-lin)

>  <Class Assignment>
no

$$$$
>  <Compound>
O=C1CCC(N2C(=O)c3ccccc3C2=O)C(=O)N1 (centres unmarked) [thalidomide]

>  <Target Desc>
MK cells (MK-lin)

>  <Class Assignment>
no

$$$$

* * *

// activity at 0.005 µM lookup, one value per entry
Tested on: granulocytes (Gran-lin)
Experiment: MLTA, Gran: concentration-response and QSP model fit
Format: cell-based, human
Conditions: Homo sapiens, 144 h; dose 5 nM, 6 days, normalized to vehicle control; read-out: Gran normalized cell count

>  <Compound>
CC(=O)O[C@@]12CO[C@@H]1C[C@H](O)[C@@]1(C)C(=O)[C@H](O)C3=C(C)[C@@H](OC(=O)[C@H](O)[C@@H](NC(=O)OC(C)(C)C)c4ccccc4)C[C@@](O)([C@@H](OC(=O)c4ccccc4)[C@H]21)C3(C)C

>  <Target Desc>
granulocytes (Gran-lin)

>  <activity at 0.005 µM>
2.09%

$$$$
>  <Compound>
CC(=O)c1c(C)c2cnc(Nc3ccc(N4CCNCC4)cn3)nc2n(C2CCCC2)c1=O

>  <Target Desc>
granulocytes (Gran-lin)

>  <activity at 0.005 µM>
88.2%

$$$$
>  <Compound>
CCc1cnn2c(NCc3ccc[n+]([O-])c3)cc(N3CCCC[C@H]3CCO)nc12

>  <Target Desc>
granulocytes (Gran-lin)

>  <activity at 0.005 µM>
121%

$$$$
>  <Compound>
CC(=O)O[C@H]1C(=O)[C@@]2(C)[C@H]([C@H](OC(=O)c3ccccc3)[C@]3(O)C[C@H](OC(=O)[C@H](O)[C@@H](NC(=O)c4ccccc4)c4ccccc4)C(C)=C1C3(C)C)[C@]1(OC(C)=O)CO[C@@H]1C[C@@H]2O

>  <Target Desc>
granulocytes (Gran-lin)

>  <activity at 0.005 µM>
92.8%

$$$$
>  <Compound>
CN(C)C(=O)c1cc2cnc(Nc3ccc(N4CCNCC4)cn3)nc2n1C1CCCC1

>  <Target Desc>
granulocytes (Gran-lin)

>  <activity at 0.005 µM>
109%

$$$$
>  <Compound>
O=C1CCC(N2C(=O)c3ccccc3C2=O)C(=O)N1 (centres unmarked) [thalidomide]

>  <Target Desc>
granulocytes (Gran-lin)

>  <activity at 0.005 µM>
110%

$$$$
>  <Compound>
CCN1CCN(Cc2ccc(Nc3ncc(F)c(-c4cc(F)c5nc(C)n(C(C)C)c5c4)n3)nc2)CC1

>  <Target Desc>
granulocytes (Gran-lin)

>  <activity at 0.005 µM>
91.3%

$$$$
>  <Compound>
CS(=O)(=O)N1CCN(Cc2cc3nc(-c4cccc5[nH]ncc45)nc(N4CCOCC4)c3s2)CC1

>  <Target Desc>
granulocytes (Gran-lin)

>  <activity at 0.005 µM>
90.3%

$$$$
